- subjectOfTest: human MC3R (human, UniProt P41968 1-323)
- Sequence (P41968 whole entry): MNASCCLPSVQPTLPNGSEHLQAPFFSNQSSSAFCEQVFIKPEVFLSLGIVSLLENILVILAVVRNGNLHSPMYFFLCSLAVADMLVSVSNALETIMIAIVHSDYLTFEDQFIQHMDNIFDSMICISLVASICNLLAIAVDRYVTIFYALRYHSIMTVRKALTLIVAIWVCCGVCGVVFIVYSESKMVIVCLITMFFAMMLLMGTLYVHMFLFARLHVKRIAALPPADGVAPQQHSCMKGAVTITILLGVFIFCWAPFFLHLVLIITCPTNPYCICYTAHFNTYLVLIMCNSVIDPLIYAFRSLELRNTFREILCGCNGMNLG
- assayProcedure: cell-based or functional assay
Positions of bridges follow the written chain, without caps; N, C: chain ends. Non-standard residues stand in square brackets, D forms with d. dPhe(4-Br) = N[C@H](Cc1ccc(Br)cc1)C(=O)O; dPhe(4-I) = N[C@H](Cc1ccc(I)cc1)C(=O)O; d(αMeF) = C[C@@](N)(Cc1ccccc1)C(=O)O; d(hPhe) = N[C@H](CCc1ccccc1)C(=O)O; Tic = O=C(O)[C@@H]1Cc2ccccc2CN1; Cit = NC(=O)NCCC[C@H](N)C(=O)O; Nle = CCCC[C@H](N)C(=O)O
Mark label 0 for cAMP EC50 values under 60 nM, and label 1 for everything at or above.

binder	cat
Ac-RC[dA]R[dPhe(4-Br)][dR][dW]C-NH2 (disulfide 2-8) [CTX-1252]	label 0
Ac-RC[dA]R[d(hPhe)]R[dW]C-NH2 (disulfide 2-8; SMILES CC(=O)N[C@@H](CCCNC(=N)N)C(=O)N[C@H]1CSSC[C@@H](C(N)=O)NC(=O)[C@@H](Cc2c[nH]c3ccccc23)NC(=O)[C@H](CCCNC(=N)N)NC(=O)[C@@H](CCc2ccccc2)NC(=O)[C@H](CCCNC(=N)N)NC(=O)[C@@H](C)NC1=O) [CTX-1239]	label 1
Ac-RC[dA]P[dPhe(4-Br)]RWC-NH2 (disulfide 2-8; SMILES CC(=O)N[C@@H](CCCNC(=N)N)C(=O)N[C@H]1CSSC[C@@H](C(N)=O)NC(=O)[C@H](Cc2c[nH]c3ccccc23)NC(=O)[C@H](CCCNC(=N)N)NC(=O)[C@@H](Cc2ccc(Br)cc2)NC(=O)[C@@H]2CCCN2C(=O)[C@@H](C)NC1=O) [CTX-2204]	label 0
Ac-RC[dA]R[d(hPhe)]R[dW]C-NH2 (disulfide 2-8) [CTX-1277]	label 0
Ac-CGR[dPhe(4-Br)]RFC-NH2 (disulfide 1-7) [CTX-1640]	label 0
Ac-RC[dA]R[dPhe(4-Br)][Cit][dW]C-NH2 (disulfide 2-8; SMILES CC(=O)N[C@@H](CCCNC(=N)N)C(=O)N[C@H]1CSSC[C@@H](C(N)=O)NC(=O)[C@@H](Cc2c[nH]c3ccccc23)NC(=O)[C@H](CCCNC(N)=O)NC(=O)[C@@H](Cc2ccc(Br)cc2)NC(=O)[C@H](CCCNC(=N)N)NC(=O)[C@@H](C)NC1=O) [CTX-1253]	label 0
Ac-RC[dA]R[dPhe(4-Br)]R[dW]CRFG-OH (disulfide 2-8; SMILES CC(=O)N[C@@H](CCCNC(=N)N)C(=O)N[C@H]1CSSC[C@@H](C(=O)N[C@@H](CCCNC(=N)N)C(=O)N[C@@H](Cc2ccccc2)C(=O)NCC(=O)O)NC(=O)[C@@H](Cc2c[nH]c3ccccc23)NC(=O)[C@H](CCCNC(=N)N)NC(=O)[C@@H](Cc2ccc(Br)cc2)NC(=O)[C@H](CCCNC(=N)N)NC(=O)[C@@H](C)NC1=O) [CTX-1219]	label 0
Ac-R[Nle]CH[dPhe(4-I)]R[dW]C-NH2 (disulfide 3-8; SMILES CCCC[C@H](NC(=O)[C@H](CCCNC(=N)N)NC(C)=O)C(=O)N[C@H]1CSSC[C@@H](C(N)=O)NC(=O)[C@@H](Cc2c[nH]c3ccccc23)NC(=O)[C@H](CCCNC(=N)N)NC(=O)[C@@H](Cc2ccc(I)cc2)NC(=O)[C@H](Cc2c[nH]cn2)NC1=O) [CTX-1233]	label 0
Ac-RC[dA]R[dPhe(4-Br)]R[Tic]C-NH2 (disulfide 2-8) [CTX-1259]	label 1
Ac-RC[dA]R[dW]RWC-NH2 (disulfide 2-8; SMILES CC(=O)N[C@@H](CCCNC(=N)N)C(=O)N[C@H]1CSSC[C@@H](C(N)=O)NC(=O)[C@H](Cc2c[nH]c3ccccc23)NC(=O)[C@H](CCCNC(=N)N)NC(=O)[C@@H](Cc2c[nH]c3ccccc23)NC(=O)[C@H](CCCNC(=N)N)NC(=O)[C@@H](C)NC1=O) [CTX-1274]	label 1
Ac-RC[dA]R[dPhe(4-Br)]RFC-NH2 (disulfide 2-8; SMILES CC(=O)N[C@@H](CCCNC(=N)N)C(=O)N[C@H]1CSSC[C@@H](C(N)=O)NC(=O)[C@H](Cc2ccccc2)NC(=O)[C@H](CCCNC(=N)N)NC(=O)[C@@H](Cc2ccc(Br)cc2)NC(=O)[C@H](CCCNC(=N)N)NC(=O)[C@@H](C)NC1=O) [CTX-1258]	label 0
Ac-RC[dA]R[d(αMeF)]R[dW]C-NH2 (disulfide 2-8; SMILES CC(=O)N[C@@H](CCCNC(=N)N)C(=O)N[C@H]1CSSC[C@@H](C(N)=O)NC(=O)[C@@H](Cc2c[nH]c3ccccc23)NC(=O)[C@H](CCCNC(=N)N)NC(=O)[C@@](C)(Cc2ccccc2)NC(=O)[C@H](CCCNC(=N)N)NC(=O)[C@@H](C)NC1=O) [CTX-1240]	label 0
